# system under test: Follistatin (Homo sapiens)
# test details: FST protein binding to printed compounds – biochemical, small-molecule microarray, 635/667 nm fluorescence, primary screen (AID 1132)
# stated conditions: 635 nm fluorescence, higher = more signal
Label rule met when composite z-score is at or above 1; otherwise label rule not met.

Q: Tell me whether composite z-score is at least 1 here: COCCOC(=O)N1C(=O)[C@@]2(c3cc(C#CCC(C(=O)OC)C(=O)OC)ccc31)[C@H](C(=O)Nc1nc3ccccc3s1)[C@H]1C(=O)O[C@H](c3ccccc3)[C@H](c3ccccc3)N1[C@@H]2c1ccc(OCCO)cc1
A: rule met

Q: Given CC(C)(C)OC(=O)CC[C@@]1(C(=O)NCCN2CCOCC2)N=C(c2ccc(OCCCO)cc2)O[C@@H]1c1ccccc1CN=[N+]=[N-] , state whether its composite z-score is at least 1.
A: rule not met

====

# system under test: Epidermal growth factor receptor (Homo sapiens) (UniProt P00533)
# Sequence (P00533 whole entry, looked up): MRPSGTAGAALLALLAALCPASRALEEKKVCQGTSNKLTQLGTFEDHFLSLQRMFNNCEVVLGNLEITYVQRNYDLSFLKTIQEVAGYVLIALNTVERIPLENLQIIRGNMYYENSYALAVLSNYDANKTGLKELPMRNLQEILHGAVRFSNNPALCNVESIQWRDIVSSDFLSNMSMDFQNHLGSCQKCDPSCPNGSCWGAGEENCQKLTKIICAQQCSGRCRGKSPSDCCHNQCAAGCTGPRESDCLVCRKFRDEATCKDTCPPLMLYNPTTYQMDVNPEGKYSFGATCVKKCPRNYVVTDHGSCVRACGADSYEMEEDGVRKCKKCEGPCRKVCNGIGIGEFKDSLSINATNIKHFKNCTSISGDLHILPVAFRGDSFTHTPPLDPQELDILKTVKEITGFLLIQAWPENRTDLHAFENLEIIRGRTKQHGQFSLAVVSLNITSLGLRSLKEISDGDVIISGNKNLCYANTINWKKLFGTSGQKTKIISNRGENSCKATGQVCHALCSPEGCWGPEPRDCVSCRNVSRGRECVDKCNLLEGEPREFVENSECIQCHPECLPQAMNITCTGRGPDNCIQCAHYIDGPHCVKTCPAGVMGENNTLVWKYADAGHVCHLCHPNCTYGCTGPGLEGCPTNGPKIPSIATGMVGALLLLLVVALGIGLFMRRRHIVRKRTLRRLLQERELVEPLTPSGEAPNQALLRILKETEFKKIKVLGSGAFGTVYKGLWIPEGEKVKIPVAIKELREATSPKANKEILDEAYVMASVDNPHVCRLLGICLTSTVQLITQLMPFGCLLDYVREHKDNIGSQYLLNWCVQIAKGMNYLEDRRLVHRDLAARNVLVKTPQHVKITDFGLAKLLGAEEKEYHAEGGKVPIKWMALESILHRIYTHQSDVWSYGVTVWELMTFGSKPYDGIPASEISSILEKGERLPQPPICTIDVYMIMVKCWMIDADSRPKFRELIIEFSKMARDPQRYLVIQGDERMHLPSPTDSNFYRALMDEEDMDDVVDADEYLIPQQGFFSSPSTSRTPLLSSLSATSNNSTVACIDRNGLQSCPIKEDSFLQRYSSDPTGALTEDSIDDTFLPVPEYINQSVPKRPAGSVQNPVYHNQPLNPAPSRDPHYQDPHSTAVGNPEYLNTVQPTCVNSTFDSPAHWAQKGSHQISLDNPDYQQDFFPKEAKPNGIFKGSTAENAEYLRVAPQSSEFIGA
# test details: compounds binding epidermal growth factor receptor – biochemical, small-molecule microarray, 635 nm fluorescence, primary screen (AID 1104);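 also: score merges 667 nm emission intensity with spot signal to noise over triplicate slides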
# stated conditions: EGFR binding, higher = more signal
Listing of recorded composite z-score by entry.
Enter a number only.

CCCCCCc1nc(-c2ccc(-c3ccc(Cl)c(Cl)c3)o2)cc2c1[Si](C(C)C)(C(C)C)OC2 = -1.01
COc1ccc(C(=O)Nc2cccc(CN3C(=O)[C@@]4(O[C@@H](CC(=O)N5CCC[C@H]5CO)[C@H]([Si](C)(C)c5ccc(OC)cc5)[C@H]4C)c4ccccc43)c2)cc1 = 0.527
C=C(CCCC)/C(=C/C[C@H](OC(=O)c1ccncc1)c1cccc(OCCO)c1)c1cnc2ccccc2c1 = 0.463
COCCOC(=O)N1C(=O)[C@@]2(c3cc(C#CCCO)ccc31)[C@H](c1ccc(OCCO)cc1)N1[C@H](c3ccccc3)[C@H](c3ccccc3)OC(=O)[C@H]1[C@@H]2C(=O)N1CCCCCCC1 = 1.32
COCCn1c(C(=O)N(C)C)cc2c1C[C@H]1CN(C(=O)c3ccccc3)[C@@](Cc3ccc(OC)cc3)(C(=O)OC)[C@@H]21 = 0.0351
CCOC(=O)C[C@H]1[C@H](OC(=O)c2cc3ccccc3oc2=O)[C@@H](NC(=O)CC(C)C)c2cc(OCCCO)ccc2N1C(=O)Cc1ccc(OC)cc1 = 0.145
COc1ccc(CCNC(=O)[C@@H]2c3ccccc3C(=O)N(Cc3ccccc3OC)[C@H]2c2ccc(CO)cc2)cc1 = 0.0744
C=C(/C(=C/C[C@@H](OC(C)=O)c1cccc(OCCO)c1)c1cnc2ccccc2c1)C(C)C = 0.324
CC(C)(C)N1CC=CC23O[C@@H]4/C=C\CCCOC(=O)C4[C@H]2C(=O)N(CCCCCO)[C@@H]3C1=O (some centres not stated) = -1.43
COC(=O)[C@@]1(Cc2ccc(OC)cc2)[C@H]2c3cc(C(=O)N4CCCC4)n(CCn4cc([N+](=O)[O-])nc4C)c3C[C@H]2CN1C(=O)c1ccccc1 = 0.661

// compound COC(=O)C(CC#Cc1ccc2c(c1)[C@]1(C(=O)N2)[C@H](C(=O)NC[C@H](O)c2ccccc2)[C@H]2C(=O)O[C@H](c3ccccc3)[C@H](c3ccccc3)N2[C@@H]1c1ccccc1OCCO)C(=O)OC , assay Epidermal growth factor receptor (Homo sapiens) (UniProt P00533), composite z-score value: 0.308

Form field composite z-score for item CC(=O)NCCCC[C@@H]1NC(=O)[C@H]2C[C@@H](C(=O)NCCCCCCNC(=O)CS)[C@@H](c3cccc(OCCO)c3)N2C1=O on Epidermal growth factor receptor (Homo sapiens) (UniProt P00533): -0.316

# composite z-score measured on Epidermal growth factor receptor (Homo sapiens) (UniProt P00533) for item COCCOC(=O)N1C(=O)[C@@]2(c3cc(C#CCC(C(=O)OC)C(=O)OC)ccc31)[C@H](c1ccc(O)cc1)N1[C@H](c3ccccc3)[C@H](c3ccccc3)OC(=O)[C@H]1[C@@H]2C(=O)Nc1nc2ccccc2s1 = 0.594

Form field, composite z-score with Epidermal growth factor receptor (Homo sapiens) (UniProt P00533), item CCCNC(=O)[C@@]1(Sc2ccc(C)cc2)CC(=O)N(Cc2ccccc2Cl)[C@@H]1c1ccc(CO)cc1I : -1.49

Item NC(=O)NCC#Cc1ccc2c(c1)[C@]1(C(=O)N2)[C@H](c2ccc(OCCO)cc2)N2[C@H](c3ccccc3)[C@H](c3ccccc3)OC(=O)[C@H]2[C@@H]1C(=O)O was tested on Epidermal growth factor receptor (Homo sapiens) (UniProt P00533); the reported composite z-score is -0.716

====

Entries and their composite z-score
# test details: probe aEGFR binding to arrayed compounds – biochemical, biotinylated probe, 635/667 nm fluorescence, primary screen (AID 1097);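 also: probe is a biotinylated anti-EGFR antibody binding compounds printed on slides; score combines fluorescence near 667 nm and signal to noise of each spot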
# stated conditions: small-molecule microarray, higher = more signal
In your answer, state the number alone without any accompanying words.

Known results for molecules:
CC(C)[Si](C#CCCc1ccccc1)(O[C@H](c1ccccc1)c1cn(Cc2ccccc2)nn1)C(C)C = 0.0276
O=C1O[C@H](c2ccccc2)[C@H](c2ccccc2)N2[C@H]1[C@@H](C(=O)O)[C@]1(C(=O)Nc3ccc(C#CCCO)cc31)[C@H]2c1ccc(OCCO)cc1 = -0.0304
O=C(NCCN1CCOCC1)[C@@H]1c2ccccc2C(=O)N(Cc2ccc(OC(F)(F)F)cc2)[C@H]1c1ccc(CO)cc1 = -0.126
O=C1C2C=CC(C(O)c3c(F)cccc3Cl)N(Nc3ccc([N+](=O)[O-])cc3)C2C(=O)N1c1ccccc1 (centres undefined) = -0.0021
CN(C)CCCCNC(=O)[C@H]1C[C@H]2C(=O)N3CCC[C@H]3C(=O)N2[C@H]1c1cccc(OCCO)c1 = -0.0968

# composite z-score of C=C(COC)C(=O)CC[C@@H](OC(=O)c1ccccc1-c1ccccc1C(=O)O)c1ccc(OCCO)cc1 = -0.139

The molecule listed as COCCOC(=O)N1C(=O)[C@@]2(c3cc(C#CCC(C(=O)OC)C(=O)OC)ccc31)[C@H](C(=O)Nc1nc3ccccc3s1)[C@H]1C(=O)O[C@H](c3ccccc3)[C@H](c3ccccc3)N1[C@@H]2c1ccc(O)cc1 shows composite z-score equal to 0.107

Summary for this molecule, C[C@@H]1ON(c2ccc(I)cc2)[C@H](c2cccc(NC(=O)OCC3c4ccccc4-c4ccccc43)c2)[C@H]1C(=O)N1C(=O)OC[C@H]1Cc1ccccc1 : composite z-score is 0.0773

Lab note: CN(C)C(=O)[C@@]1(Cc2ccccc2CN=[N+]=[N-])COC(c2ccc(OCCCO)cc2)=N1 gave composite z-score of -0.152

// recorded composite z-score for C=C(COC)C(=O)CC[C@@H](OC(C)=O)c1ccccc1OCCO : -0.0382

response.value for COCCOC(=O)N1C(=O)[C@@]2(c3cc(C#CCC(C(=O)OC)C(=O)OC)ccc31)[C@H](C(=O)Nc1nc3ccccc3s1)[C@H]1C(=O)O[C@H](c3ccccc3)[C@H](c3ccccc3)N1[C@@H]2c1ccc(OCCO)cc1 (field: composite z-score) = 0.232

====

# test details: small molecules captured by biotinylated probe aFGF2 – biochemical, small-molecule microarray, fluorescence 635/667, stem cell growth factor project, primary screen (AID 1067);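 also: measures binding of biotinylated aFGF2 protein to printed compounds on slides; z-score merges feature fluorescence and signal-to-noise across triplicate slides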
# stated conditions: higher = more signal
# composite z-score >= -0.02 gives 1, anything below gives -1

Some solved cases for reference:
CCOC(=O)C[C@H]1[C@H](OC(=O)c2cc3ccccc3oc2=O)[C@@H](NC(=O)CC(C)C)c2cc(OCCCO)ccc2N1C(=O)Cc1ccc(OC)cc1 = -1
CC=CC(O)C1C=CC2C(=O)NC(=O)C2N1Nc1ccc(Cl)cc1Cl (stereo not drawn) = 1
COc1ccc([Si](C)(C)[C@H]2[C@H](CC(=O)N3CCC[C@H]3CO)O[C@@]3(C(=O)N(Cc4ccc(N5CCCCC5=O)cc4)c4ccccc43)[C@@H]2C)cc1 = -1
[N-]=[N+]=NCc1ccccc1[C@@H]1OC(c2ccc(OCCCO)cc2)=N[C@]1(Cc1ccccc1N=[N+]=[N-])C(=O)NCC(O)CO (stereo partly drawn) = 1
O=C1O[C@@H](c2ccccc2)[C@@H](c2ccccc2)N2[C@@H](c3ccc(OCCO)cc3)[C@]3(C(=O)Nc4ccc(C#CC5(O)CCCCCC5)cc43)[C@@H](C(=O)Nc3nc4ccccc4s3)[C@H]12 = 1

Q: Decide: composite z-score of COCCOC(=O)N1C(=O)[C@@]2(c3cc(C#CCC(C(=O)OC)C(=O)OC)ccc31)[C@H](C(N)=O)[C@H]1C(=O)O[C@H](c3ccccc3)[C@H](c3ccccc3)N1[C@@H]2c1ccc(O)cc1 >= -0.02?
A: 1

Q: Please indicate if the recorded composite z-score for CCOC(=O)C[C@H]1[C@H](OC(=O)Cc2ccc3c(c2)OCO3)[C@@H](NC(=O)Cc2ccc(OC)cc2)c2cc(OCCCO)ccc2N1C(=O)Cc1ccc(OC)cc1 meets or exceeds -0.02.
A: -1

Q: Is composite z-score for CCCNC(=O)[C@@]1(Sc2ccc(C)cc2)CC(=O)N(Cc2ccccc2Cl)[C@@H]1c1ccc(CO)cc1I at or above -0.02?
A: -1

Q: Is it the case that C=C(CCCC)/C(=C/C[C@H](OC(C)=O)c1cccc(OCCO)c1)c1cnc2ccccc2c1 has composite z-score reaching or exceeding -0.02?
A: -1
